Data credit: patent USRE32268E

system: influenza A2 virus, Hong Kong strain; test: antiviral potency against influenza A2 virus, Hong Kong strain, in tissue culture (baby hamster kidney cell line); format: cell-based; details: 10 μg/ml; inoculum 100 TCD50; 4.0 is the maximum obtainable; read-out: Log Decrease in Infectivity of Virus Inoculum
measure.name: log reduction at 10 µg/mL

{"columns": ["compound", "measure.name", "observed.result"],
 "data": [
  ["CN(C)CCCOC[C@H]1OC(O)[C@H](O)[C@@H](O)[C@H]1O (stereo partly shown)", "log reduction at 10 µg/mL", 2],
  ["CC(CO[C@H]1[C@H](O)[C@@H](CO)OC(O)[C@@H]1O)CN(C)C (stereo partly shown)", "log reduction at 10 µg/mL", 3],
  ["CN(C)CCO[C@H]1[C@H](O)[C@@H](CO)OC(O)[C@@H]1O (stereo partly shown)", "log reduction at 10 µg/mL", 3.5],
  ["CCN(CC)CCO[C@H]1[C@H](O)[C@@H](CO)OC(O)[C@@H]1O (stereo partly shown)", "log reduction at 10 µg/mL", 1]
]}
